# test_system: T1, full-length human GIPR (GenBank NM_000164) with an N-terminal FLAG tag on HEK-293T cells (human), P48546
# T1 chain: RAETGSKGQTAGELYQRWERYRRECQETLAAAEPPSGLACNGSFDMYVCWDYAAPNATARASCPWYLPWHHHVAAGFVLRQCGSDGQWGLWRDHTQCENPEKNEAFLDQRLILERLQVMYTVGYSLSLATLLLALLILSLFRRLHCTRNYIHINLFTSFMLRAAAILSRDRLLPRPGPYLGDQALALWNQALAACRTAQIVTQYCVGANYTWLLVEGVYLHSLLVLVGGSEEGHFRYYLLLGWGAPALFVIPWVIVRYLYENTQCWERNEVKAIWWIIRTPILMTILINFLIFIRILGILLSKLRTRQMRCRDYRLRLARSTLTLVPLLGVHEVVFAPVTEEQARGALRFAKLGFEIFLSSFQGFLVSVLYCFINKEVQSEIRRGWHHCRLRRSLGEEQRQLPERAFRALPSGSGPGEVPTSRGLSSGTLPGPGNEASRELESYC
# method: cell-based or functional assay
Numbered stars: 1 amine (or outer) side, 2 acyl side, 3 side chain; on linkers, the order of the positions; unused ones are H or OH. Square brackets hold non-standard residues; d marks the D form. Primed or numbered codes have the meaning given here. Side chains are listed from the residue outwards. Ends that are not written are not given here. * marks the point of attachment. C20 diacid = O=C(O)CCCCCCCCCCCCCCCCCCC(=O)*; C18 diacid = O=C(O)CCCCCCCCCCCCCCCCC(=O)*; C16 diacid = O=C(O)CCCCCCCCCCCCCCC(=O)*; γGlu = O=C(O)[C@H](CCC(=O)[*:2])N[*:1]; Iva = CC[C@](C)(N)C(=O)O; PEG3′ = not defined here; Abu = CC[C@H](N)C(=O)O; Aib = CC(C)(N)C(=O)O
experimental_readout: GIP EC50(pM)
Just the number please, in pM, no unit attached.

Incoming: Give reported GIP EC50(pM) value for Y[Aib]EGTFISDYSIALDR[Aib]HQ[Aib]NFVNW[Iva]LAQRK([PEG3′-PEG3′-γGlu-C20 diacid])SSGAPPPS (ends and bridges not checked) [Compound No. 487]
Outgoing: 1.38

Incoming: Tell us which GIP EC50(pM) value is on record for Y[Aib]EGTFISDYSIALDR[Aib]HQ[Aib]NFVNW[Iva]LAQRPSK([PEG3′-PEG3′-C16 diacid])GAPPPSR (ends and bridges not checked) [Compound No 898]
Outgoing: 0.6

Incoming: Name the recorded GIP EC50(pM) of the item Y[Aib]EGTFISDYSIALDR[Aib]HQ[Aib]NFVNW[Iva]LAQRPSSGAPPK([PEG3′-PEG3′-C20 diacid])SR (ends and bridges not checked) [Compound No 935] in your answer.
Outgoing: 1

Incoming: State its GIP EC50(pM) for this binder: Y[Aib]EGTFISDYSIALDR[Aib]HQ[Aib]NFVNW[Iva]LAQRPSSGAPPK([PEG3′-PEG3′-γGlu-C16 diacid])S (ends and bridges not checked) [Compound No. 476]
Outgoing: 0.74

Incoming: Identify measured GIP EC50(pM) associated with Y[Aib]EGTFISDYSIALDR[Aib]HQ[Aib]NFVNW[Iva]LAQRPK([PEG3′-PEG3′-C20 diacid])SGAPPPSR (ends and bridges not checked) [Compound No 894]
Outgoing: 1.9

Incoming: Output GIP EC50(pM) of Y[Aib]EGTFISDYSIALDR[Aib]HQ[Aib]NFVNW[Iva]LAQRPSSGAK([PEG3′-PEG3′-γGlu-Ida])PPS (ends and bridges not checked) [Compound No. 501]
Outgoing: 0.92

Incoming: Supply measured GIP EC50(pM) of Y[Aib]EGTFISDYSIALDR[Aib]HQ[Aib]NFVNW[Iva]LAQRPSSK([Gly-Gly-Gly-Gly-Gly-γGlu-C20 diacid])APPPS (ends and bridges not checked) [Compound No. 449] in your reply.
Outgoing: 0.65

Incoming: Query GIP EC50(pM) for Y[Aib]EGTFISDYSIALDR[Aib]HQ[Aib]NFVNW[Iva]LAQRPSSGAPPPK([Abu-γGlu-C18 diacid]) (ends and bridges not checked) [Compound No. 545]
Outgoing: 0.43
